Data provenance is patent US20160264649A1.

Attribute: IC50 (neutralization)
# Subject of test: HIV-1 Env of isolate MGRM-F1-016 (subtype F) (HIV-1)
# Procedure summary: cell-based or functional assay

- Binder: "PGT-131 (antibody, V domains shown) VH: QVQLQESGPGLVKPSETLSLTCTVSGDSINTGHHYWGWVRQVPGKGPEWIAHIHYNTAVLHNPALKSRVTISIFTLKNLITLSLSNVTAADTAVYFCVRSGGDILYYIEWQKPHWFYPWGPGILVTVSS VL: QSALTQPPSASGSLGQSLTISCSGTGSDIGSWNFVSWYQQFPGRAPNLIIFEVNRRRSGVPDRFSGSKSGNTASLTVSGLRSEDEAEYFCSSLSGRWDIVFGGGTKVTVL"
  IC50 (neutralization): "> 50 µg/mL"
- Binder: "PGT-125 (antibody, V domains shown) VH: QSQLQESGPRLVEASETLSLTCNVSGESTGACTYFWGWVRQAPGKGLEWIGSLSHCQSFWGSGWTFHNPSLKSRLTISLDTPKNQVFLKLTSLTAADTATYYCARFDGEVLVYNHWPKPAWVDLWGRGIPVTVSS VL: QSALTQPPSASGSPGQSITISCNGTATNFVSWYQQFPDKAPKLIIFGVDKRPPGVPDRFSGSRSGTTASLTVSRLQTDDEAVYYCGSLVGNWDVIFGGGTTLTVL"
  IC50 (neutralization): "> 50 µg/mL"

Fill in the blank: the reported IC50 (neutralization) of PGT-136 (antibody, V domains shown) VH: QLQLQESGPGLVKPSETLSLTCTVSGGSMRGTDWGENDFHYGWIRQSSAKGLEWIGSIHWRGRTTHYKTSFRSRATLSIDTSNNRFSLTFSFVTAADTAVYYCARHKYHDIFRVVPVAGWFDPWGQGLLVTVSS VL: EIVMTQSPPTLSVSPGETATLSCRASQNVKNNLAWYQLKPGQAPRLLIFDASSRAGGIPDRFSGSGYGTDFTLTVNSVQSEDFGDYFCQQYEEWPRTFGQGTKVDIK is ____.
> 50 µg/mL

Fill in the blank: the reported IC50 (neutralization) of PGT-135 (antibody, V domains shown) VH: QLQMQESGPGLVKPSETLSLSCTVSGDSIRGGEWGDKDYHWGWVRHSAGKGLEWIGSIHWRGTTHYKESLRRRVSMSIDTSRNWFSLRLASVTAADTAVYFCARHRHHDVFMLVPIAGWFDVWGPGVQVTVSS VL: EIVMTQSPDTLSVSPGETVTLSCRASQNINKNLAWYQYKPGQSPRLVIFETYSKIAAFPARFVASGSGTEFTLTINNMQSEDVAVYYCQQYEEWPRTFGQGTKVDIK is ____.
> 50 µg/mL

Fill in the blank: the reported IC50 (neutralization) of PGT-137 (antibody, V domains shown) VH: EVHLEESGPGLVRPSETLSLTCTASGGSIRGGEWGDSDYHWGWVRHSPEKGLEWIGSIHWRGTTHYNAPFRGRGRLSIDLSRNQFSLRLTSVTAEDTAVYYCVKHKYHDIVMVVPIAGWFDPWGQGLQVTVSS VL: EIMMTQSPAILSVSPGDRATLSCRASQSVKNNLAWYQKRPGQAPRLLIFDTSSRASGIPARFSGGGSGTEFTLTVNSMQSEDFATYYCQQYEEWPRTFGQGTKVEIK is ____.
> 50 µg/mL
